Numbers sourced from patent US7956074B2.

Measured Ki, listed per entry.
- Target System: GABA A receptor α5β3γ2 (Homo sapiens, UniProt P18507+P31644)
- Construct: expressed in transfected cells; host or cells: HEK293 cells, transiently transfected; membranes prepared
- Method Notes: [3H]flumazenil competition binding, human GABA A α5β3γ2
- Recorded Conditions: competition for [3H]flumazenil (0.5 nM) binding, HEK293 cells expressing human (transiently transfected) α5β3γ2; means of two determinations; read-out: Ki[nM] hα5
Please state the figure in nM; there is no need to write the unit.

[
  {
    "Smiles Notation": "Cc1onc(-c2ccccc2)c1-c1nnc(-c2cccc3cccnc23)o1",
    "Measured Attribute": "Ki",
    "Reported Value": 40.6
  },
  {
    "Smiles Notation": "COc1cc(-n2nccn2)ccc1-c1nnc(-c2c(-c3ccccc3)noc2C)o1",
    "Measured Attribute": "Ki",
    "Reported Value": 20.6
  },
  {
    "Smiles Notation": "Cc1onc(-c2ccccc2)c1-c1nnc(-c2ccc(S(C)(=O)=O)cc2)o1",
    "Measured Attribute": "Ki",
    "Reported Value": 226
  },
  {
    "Smiles Notation": "Cc1onc(-c2ccccc2)c1-c1nnc(-c2ccc3[nH]cnc3c2)o1",
    "Measured Attribute": "Ki",
    "Reported Value": 22.1
  }
]

Consider the record given below.
**Q:** Field request: Ki | item: COc1ccc(OC)c(-c2nnc(-c3c(-c4ccccc4)noc3C)o2)c1
**A:** 14.8
